Please provide measured Ki for the entries that follow.
# target entity: PKCε (Homo sapiens, UniProt Q02156)
# Sequence (Q02156 1-737): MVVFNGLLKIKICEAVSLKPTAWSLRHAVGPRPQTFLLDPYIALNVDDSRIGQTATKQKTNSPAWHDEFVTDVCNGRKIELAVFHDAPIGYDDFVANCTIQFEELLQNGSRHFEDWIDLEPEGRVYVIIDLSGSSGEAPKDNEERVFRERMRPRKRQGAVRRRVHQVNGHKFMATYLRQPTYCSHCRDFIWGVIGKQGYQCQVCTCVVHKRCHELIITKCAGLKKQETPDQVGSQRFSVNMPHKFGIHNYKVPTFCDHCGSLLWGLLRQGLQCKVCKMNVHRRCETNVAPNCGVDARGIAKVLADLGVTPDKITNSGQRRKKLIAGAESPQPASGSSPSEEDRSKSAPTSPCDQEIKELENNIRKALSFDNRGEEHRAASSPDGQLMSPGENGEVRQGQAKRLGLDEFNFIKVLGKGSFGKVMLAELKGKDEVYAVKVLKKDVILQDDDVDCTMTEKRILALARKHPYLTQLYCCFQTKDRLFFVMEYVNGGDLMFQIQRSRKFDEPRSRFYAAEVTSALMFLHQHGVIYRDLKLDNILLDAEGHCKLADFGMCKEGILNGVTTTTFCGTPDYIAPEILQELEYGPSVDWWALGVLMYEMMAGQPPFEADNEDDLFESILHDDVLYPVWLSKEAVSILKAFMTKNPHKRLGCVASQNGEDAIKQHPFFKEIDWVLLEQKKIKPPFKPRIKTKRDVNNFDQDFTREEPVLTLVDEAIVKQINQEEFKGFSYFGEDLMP
# test protocol: Inhibition of PKCε (Example 4)
# Type: biochemical
# assay conditions: n = 3; read-out: Ki (nM) PKCε
Give bare numbers, in nM.

Cl.NC(CNC(=O)C1(c2ccc(F)cc2)CCCC1)[C@H]1CC[C@H](C(=O)Nc2ccncc2)CC1 (some centres unmarked)
12.8

Moving on to the next compound.
Prompt: I have this compound here, CC(C)(C(=O)NCC(N)[C@H]1CC[C@H](C(=O)Nc2ccncc2)CC1)c1ccc(Cl)cc1.Cl (some centres unmarked) , and I need its recorded Ki.
Response: 9.3
